Target: Prostaglandin F (FP) Receptor (Homo sapiens)
Construct: host or cells: Ca2+ optimized hematopoietic cell lines (rat)
Sequence (P43088 whole entry): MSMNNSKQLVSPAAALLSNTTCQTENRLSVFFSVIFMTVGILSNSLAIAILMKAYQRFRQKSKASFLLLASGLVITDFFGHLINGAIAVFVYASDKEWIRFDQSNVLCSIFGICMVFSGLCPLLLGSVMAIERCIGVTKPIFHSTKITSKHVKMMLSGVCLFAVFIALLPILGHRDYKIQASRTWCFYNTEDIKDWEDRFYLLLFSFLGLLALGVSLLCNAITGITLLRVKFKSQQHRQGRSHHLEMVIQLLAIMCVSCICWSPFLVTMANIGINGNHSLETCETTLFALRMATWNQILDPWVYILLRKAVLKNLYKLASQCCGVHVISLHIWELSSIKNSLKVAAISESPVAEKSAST
Assay: Ca2+ assay (FLIPR) for the GPCR prostaglandin F (FP) receptor, agonist and antagonist mode
Type: cell-based
Details: 10 μM
OBSERVABLE: inhibition at 10 µM
Be sure to follow the number with its unit.

Can you look up the measured inhibition at 10 µM of "CN1CCC[C@H](NC(=O)CCCCOc2ccccc2)C(=O)N2C[C@@H](NC(=O)Cc3ccc4ccccc4c3)C[C@H]2COc2cccc(c2)C1=O" for me?
98%

Can you look up the measured inhibition at 10 µM of "CCCCCCCCCC(=O)N[C@H]1CN(C)C(=O)c2cccc(c2)OC[C@@H]2C[C@H](NC(=O)Cc3c[nH]c4ccccc34)CN2C(=O)CN(C)C1=O" for me?
78%

Can you look up the measured inhibition at 10 µM of "COc1cccc(NC(=O)N[C@H]2C[C@H]3COc4cccc(c4)C(=O)N(C)CCC[C@H](NC(=O)Cc4ccc5ccccc5c4)C(=O)N3C2)c1" for me?
95%

Can you look up the measured inhibition at 10 µM of "CN1CCC[C@H](NC(=O)CC(C)(C)C)C(=O)N2C[C@@H](NC(=O)Nc3cccc(N(C)C)c3)C[C@H]2COc2cccc(c2)C1=O" for me?
71%

Can you look up the measured inhibition at 10 µM of "CN1CCC[C@H](NC(=O)Cc2ccc(-c3ccccc3)cc2)C(=O)N2C[C@@H](NC(=O)C(c3ccccc3)c3ccccc3)C[C@H]2COc2cccc(c2)C1=O" for me?
37%

Can you look up the measured inhibition at 10 µM of "CCCCCCCCCC(=O)N[C@H]1CCCN(C)C(=O)c2cccc(c2)OC[C@@H]2C[C@H](NC(=O)C(c3ccccc3)c3ccccc3)CN2C1=O" for me?
69%

Can you look up the measured inhibition at 10 µM of "CCCCCCCCCC(=O)N[C@H]1CCCN(C)C(=O)c2cccc(c2)OC[C@@H]2C[C@H](NC(=O)CC(c3ccccc3)c3ccccc3)CN2C1=O" for me?
73%

Can you look up the measured inhibition at 10 µM of "CN1CCC[C@H](NC(=O)Cc2cccc3ccccc23)C(=O)N2C[C@@H](NC(=O)Cc3ccc4ccccc4c3)C[C@H]2COc2cccc(c2)C1=O" for me?
47%

Can you look up the measured inhibition at 10 µM of "O=C(Cc1ccc2ccccc2c1)N[C@H]1C[C@H]2COc3cccc(c3)C(=O)NCCC[C@H](NC(=O)OCc3ccccc3)C(=O)N2C1" for me?
99%

Can you look up the measured inhibition at 10 µM of "CCCCCCCCCC(=O)N[C@H]1CCCN(C)C(=O)c2cccc(c2)OC[C@@H]2C[C@H](NC(=O)Cc3ccc4ccccc4c3)CN2C1=O" for me?
62%

Can you look up the measured inhibition at 10 µM of "CN1CCC[C@H](NC(=O)Cc2ccc(-c3ccccc3)cc2)C(=O)N2C[C@@H](NC(=O)Nc3cccc(N(C)C)c3)C[C@H]2COc2cccc(c2)C1=O" for me?
99%

Can you look up the measured inhibition at 10 µM of "CCCCCCCCCC(=O)N[C@H]1CCCN(C)C(=O)c2cccc(c2)OC[C@@H]2C[C@H](NC(=O)Nc3cccc(N(C)C)c3)CN2C1=O" for me?
99%

Can you look up the measured inhibition at 10 µM of "CCCCCCCCCC(=O)N[C@H]1C[C@H]2COc3cccc(c3)C(=O)N(C)CCC[C@H](NC(=O)Cc3ccc4ccccc4c3)C(=O)N2C1" for me?
74%

Can you look up the measured inhibition at 10 µM of "CCCCCCCCCC(=O)N[C@H]1C[C@H]2COc3cccc(c3)C(=O)N(C)CCC[C@H](NC(=O)Cc3cccc4ccccc34)C(=O)N2C1" for me?
82%

Can you look up the measured inhibition at 10 µM of "CN1CC(=O)N2C[C@@H](NC(=O)Cc3c[nH]c4ccccc34)C[C@H]2COc2ccc(F)cc2C(=O)N(C)[C@H](C(=O)NCCc2c[nH]c3ccccc23)CCC1=O" for me?
44%

----------
Experiment: in vitro
Format: in vitro ADME, mouse
Settings: both, CD-1, mouse, plasma, 4 h, 10 µM
Please provide measured Plasma Stability 240 min mouse [% remain.] for the entries that follow.
The figure you give is taken to be in % remain.; do not add the unit.

Can you look up the measured Plasma Stability 240 min mouse [% remain.] of CN1C[C@H](NC(=O)OCc2ccccc2)C(=O)N(C)CC(=O)N2C[C@@H](NC(=O)OC(C)(C)C)C[C@H]2COc2cncc(c2)C1=O [Ex. 272] for me?
92

Can you look up the measured Plasma Stability 240 min mouse [% remain.] of CN1CC(=O)N2C[C@@H](NC(=O)CN3CCCC3)C[C@H]2COc2ccc(F)cc2C(=O)N(C)[C@@H](C(=O)N2CCCC2)CCC1=O [Ex. 98] for me?
78

Can you look up the measured Plasma Stability 240 min mouse [% remain.] of CN1CCC[C@H](N)C(=O)N2C[C@@H](Oc3ccccc3)C[C@H]2COc2cccc(c2)C1=O [Ex. 561] for me?
100

Can you look up the measured Plasma Stability 240 min mouse [% remain.] of CN(C)CCNC(=O)[C@@H]1CCC(=O)N(C)CC(=O)N2C[C@@H](NC(=O)Cc3c[nH]c4ccccc34)C[C@H]2COc2ccc(F)cc2C(=O)N1C [Ex. 11] for me?
100

Can you look up the measured Plasma Stability 240 min mouse [% remain.] of CC(C)CN1C[C@H]2C[C@H]1COc1ccc(F)cc1C(=O)N(C)CCC[C@H](NC(=O)Cc1ccccc1)C(=O)N2 [Ex. 407] for me?
98

Can you look up the measured Plasma Stability 240 min mouse [% remain.] of CN1CC(=O)N2C[C@@H](NC(=O)Cc3cccc4ccccc34)C[C@H]2COc2ccc(F)cc2C(=O)N(C)[C@H](C(=O)NCCN)CCC1=O [Ex. 483] for me?
100

Can you look up the measured Plasma Stability 240 min mouse [% remain.] of CN1CC(=O)N2C[C@H](NC(=O)CCC(=O)O)C[C@H]2COc2ccc(cc2)C(=O)N(C)[C@H](C(=O)NCc2ccncc2)CCC1=O [Ex. 267] for me?
79

Can you look up the measured Plasma Stability 240 min mouse [% remain.] of CC(=O)N1CCN([C@H]2CCCN(C)C(=O)c3cccc(c3)OC[C@@H]3C[C@H](O)CN3C2=O)CC1 [Ex. 582] for me?
96

Can you look up the measured Plasma Stability 240 min mouse [% remain.] of CN(C)CCNC(=O)[C@@H]1CCC(=O)N(C)CC(=O)N2C[C@@H](NC(=O)Cc3cccc4ccccc34)C[C@H]2COc2ccc(F)cc2C(=O)N1C [Ex. 49] for me?
96

Can you look up the measured Plasma Stability 240 min mouse [% remain.] of CN1CCC[C@H](NC(=O)Cc2ccccc2)C(=O)N2C[C@@H](O)C[C@H]2COc2cccc(c2)C1=O [Ex. 574] for me?
95

Can you look up the measured Plasma Stability 240 min mouse [% remain.] of CN(C)CC(=O)N[C@H]1C[C@H]2COc3ccc(F)cc3C(=O)N(C)[C@H](C(=O)NCCc3c[nH]c4ccccc34)CCC(=O)N(C)CC(=O)N2C1 [Ex. 16] for me?
97

----------
Assay: Pharmacokinetic study after single i.v. and p.o. administration in male SD rats
Format: in vivo
Conditions: male, SD, plasma; rat, iv, 1 mg/kg
OBSERVABLE: Tmax (min)
The figure you give is taken to be in min; do not add the unit.

Can you look up the measured Tmax of "CN1CCC[C@H](N)C(=O)N2C[C@@H](Oc3ccccc3)C[C@H]2COc2cccc(c2)C1=O" for me?
4.8

Can you look up the measured Tmax of "CN1CCC[C@H](N)C(=O)N2C[C@@H](OCc3ccccc3)C[C@H]2COc2cccc(c2)C1=O" for me?
4.8

Can you look up the measured Tmax of "CN1CCC[C@H](NC(=O)CC(C)(C)C)C(=O)N2C[C@@H](O)C[C@H]2COc2cccc(c2)C1=O" for me?
4.8

----------
Please provide measured Plasma Stability T½ [min] hum for the entries that follow.
Test: in vitro
Type: in vitro ADME, human
Conditions: human, plasma, 10 µM

Can you look up the measured Plasma Stability T½ [min] hum of CCCCCCCCCC(=O)N[C@H]1CCCN(C)C(=O)c2cccc(c2)OC[C@@H]2C[C@H](NC(=O)Nc3cccc(N(C)C)c3)CN2C1=O [Ex. 511] for me?
> 240 min

Can you look up the measured Plasma Stability T½ [min] hum of CN1CCC[C@H](N)C(=O)N2C[C@@H](OCc3ccc(-c4cccnc4)cc3)C[C@H]2COc2cccc(c2)C1=O [Ex. 578] for me?
> 240 min

Can you look up the measured Plasma Stability T½ [min] hum of CN1C[C@H](NC(=O)OCc2ccccc2)C(=O)N(C)CC(=O)N2C[C@@H](NC(=O)Cc3c[nH]c4ccccc34)C[C@H]2COc2cccc(c2)C1=O [Ex. 200] for me?
> 240 min

Can you look up the measured Plasma Stability T½ [min] hum of CN1CCC[C@H](N2CCNCC2)C(=O)N2C[C@@H](O)C[C@H]2COc2cccc(c2)C1=O [Ex. 580] for me?
> 240 min

Can you look up the measured Plasma Stability T½ [min] hum of CN1CCC[C@H](NC(=O)Cc2cccc3ccccc23)C(=O)N2C[C@@H](NC(=O)Nc3cccc(N(C)C)c3)C[C@H]2COc2cccc(c2)C1=O [Ex. 512] for me?
> 240 min

Can you look up the measured Plasma Stability T½ [min] hum of CN1C(=O)c2cccc(c2)OC[C@@H]2C[C@H](NC(=O)CCc3ccncc3)CN2C(=O)COC[C@H]1C(=O)NCc1ccc2ccccc2c1 [Ex. 372] for me?
> 240 min

Can you look up the measured Plasma Stability T½ [min] hum of CNC(=O)[C@H]1CCC(=O)N(C)CC(=O)N2C[C@@H](NC(=O)Cc3ccc4ccccc4c3)C[C@H]2COc2ccc(F)cc2C(=O)N1C [Ex. 93] for me?
> 240 min

Can you look up the measured Plasma Stability T½ [min] hum of CN1CCC(NC(=O)OCc2ccccc2)C(=O)N2CC(NC(=O)Cc3ccc4ccccc4c3)CC2COc2cccc(c2)C1=O (stereo not shown) [Ex. 168] for me?
> 240 min

Can you look up the measured Plasma Stability T½ [min] hum of CN1CC(=O)N2C[C@@H](NC(=O)Cc3cccc4ccccc34)C[C@H]2COc2ccc(F)cc2C(=O)N(C)[C@H](C(=O)NCCNC(=N)N)CCC1=O [Ex. 484] for me?
> 240 min

Can you look up the measured Plasma Stability T½ [min] hum of CN1C(=O)c2cccc(c2)OC[C@@H]2C[C@H](N)CN2C(=O)COC[C@H]1C(=O)NCc1ccc2ccccc2c1 [Ex. 368] for me?
> 240 min

Can you look up the measured Plasma Stability T½ [min] hum of CC(=O)N[C@H]1C[C@H]2COc3ccc(F)cc3C(=O)N(C)[C@H](C(=O)NCCc3c[nH]c4ccccc34)CCC(=O)N(C)CC(=O)N2C1 [Ex. 9] for me?
> 240 min

Can you look up the measured Plasma Stability T½ [min] hum of CN1C[C@H](NC(=O)OCc2ccccc2)C(=O)N(C)CC(=O)N2C[C@@H](NC(=O)OC(C)(C)C)C[C@H]2COc2cncc(c2)C1=O [Ex. 272] for me?
> 240 min

Can you look up the measured Plasma Stability T½ [min] hum of CN1CC(=O)N2C[C@@H](NC(=O)CN3CCCC3)C[C@H]2COc2ccc(F)cc2C(=O)N(C)[C@@H](C(=O)N2CCCC2)CCC1=O [Ex. 98] for me?
> 240 min
